# Tested System: KRas^G12V (Homo sapiens, UniProt P01116, G12V)
# Construct: Biotinylated KRas (corresponding to amino acids 1-169, produced at Accelegan Inc.); biotin (biotinylated); purchased Accelegan Inc
# Sequence (P01116 1-169 isoform P01116-2 G12V): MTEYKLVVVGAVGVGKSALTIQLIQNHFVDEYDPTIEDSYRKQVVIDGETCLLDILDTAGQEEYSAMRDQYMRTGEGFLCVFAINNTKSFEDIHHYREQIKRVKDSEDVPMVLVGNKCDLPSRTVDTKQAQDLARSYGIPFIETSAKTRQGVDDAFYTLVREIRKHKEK
# Procedure Text: KRas binding assay (TR-FRET tracer displacement), KRas G12V
Property Measured: IC50

Completed entries (count: 2):
CCc1c(F)ccc2cc(O)cc(-c3ncc4c(N5CCOCC6(CNC(=O)N6)C5)nc(OC[C@@]56CCCN5C[C@H](F)C6)nc4c3F)c12 (stereo partly drawn) : < 2 nM
CCc1c(F)ccc2cc(O)cc(-c3ncc4c(N5CC6CCC(C5)C65OCCO5)nc(OC[C@@]56CCCN5C[C@H](F)C6)nc4c3F)c12 : 7 nM

What value of IC50 has been reported for the following compound? O=C1NC(=O)C2(CCCN(c3nc(OCC45CCCN4CCC5)nc4c(F)c(-c5cc(O)cc(Cl)c5C5CC5)ncc34)C2)N1 (stereo not drawn)
< 2 nM

What value of IC50 has been reported for the following compound? O=C1NS(=O)(=O)NC12CCCN(c1nc(OC[C@@]34CCCN3C[C@H](F)C4)nc3c(F)c(-c4cc(O)cc5ccc(F)c(Cl)c45)ncc13)C2 (stereo partly drawn)
3 nM

What value of IC50 has been reported for the following compound? Oc1cc(-c2ncc3c(N4CCCC5(CCO5)C4)nc(OC[C@@]45CCCN4C[C@H](F)C5)nc3c2F)c2c(Cl)c(F)ccc2c1 (stereo partly drawn)
< 2 nM

What value of IC50 has been reported for the following compound? `CCCCN(CCCC)C(=O)OC[C@@H]1CC[C@@]2(COc3nc(N4CCC[C@@](C)(O)C4)c4cnc(-c5cc(O)cc6ccc(F)c(CC)c56)c(F)c4n3)CCCN12`
7 nM

---

# Tested System: KRas^WT (Homo sapiens)
# Construct: Biotinylated KRas (corresponding to amino acids 1-169, produced at Accelegan Inc.); biotin (biotinylated); purchased Accelegan Inc
# Sequence (P01116 1-169 isoform P01116-2): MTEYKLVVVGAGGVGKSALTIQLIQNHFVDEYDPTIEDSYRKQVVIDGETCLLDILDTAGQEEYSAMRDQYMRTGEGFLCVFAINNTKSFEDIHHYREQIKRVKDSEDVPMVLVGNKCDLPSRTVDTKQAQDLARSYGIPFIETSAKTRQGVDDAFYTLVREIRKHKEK
# Procedure Text: KRas binding assay (TR-FRET tracer displacement), KRas WT
# Condition Info: TR-FRET tracer displacement, KRas WT
Form field: IC50 (one value per entry).
Express it in nM; write the number only.

Completed entries (count: 6):
Oc1cc2ccccc2c(-c2ncc3c(N4C[C@@H]5C[C@H](C4)[C@H](O)C5)nc(OC[C@@]45CCCN4C[C@H](F)C5)nc3c2F)c1Cl [Example 765] : 156
Oc1cc(-c2ncc3c(N4C[C@@H]5C[C@H](C4)[C@H](O)C5)nc(OC[C@@]45CCCN4C[C@H](F)C5)nc3c2F)c2cccc(F)c2c1 [Example 748] : 20
Oc1cc(-c2ncc3c(N4C[C@@H]5C[C@H](C4)[C@H](O)C5)nc(OC[C@@]45CCCN4C[C@H](F)C5)nc3c2F)c2ccccc2c1C(F)(F)F [Example 782] : 4220
CCc1c(F)ccc2cc(O)cc(-c3ncc4c(N5C[C@@H]6C[C@H](C5)[C@H](O)C6)nc(OC[C@@]56CCCN5C[C@@H](OC)C6)nc4c3F)c12 [Example 925] : 3
Cc1cc2[nH]nnc2c(-c2ncc3c(N4CCOC[C@@](C)(O)C4)nc(OCC45CCCN4CCC5)nc3c2F)c1C [Example 822] : 5420
Cc1cc2[nH]nnc2c(-c2ncc3c(N4CC5C(=O)NC(=O)C5C4)nc(OCC45CCCN4CCC5)nc3c2F)c1C (stereo not drawn) [Example 833] : 3830

What value of IC50 has been reported for the following compound? Cc1cc2[nH]ncc2c(-c2ncc3c(N4CCCC5(CC(O)C5)C4)nc(OCC45CCCN4CCC5)nc3c2F)c1C (stereo not drawn) [Example 727]
657
